- target_under_test: T1, MprF protein of Staphylococcus aureus (Staphylococcus aureus, UniProt Q2G2M2 1-840)
- T1 construct: Presented on whole S. aureus cells (Protein A deletion mutant, delta spa; SA113 delta spa in the functional assays); also called MprF on S. aureus
- T1 sequence: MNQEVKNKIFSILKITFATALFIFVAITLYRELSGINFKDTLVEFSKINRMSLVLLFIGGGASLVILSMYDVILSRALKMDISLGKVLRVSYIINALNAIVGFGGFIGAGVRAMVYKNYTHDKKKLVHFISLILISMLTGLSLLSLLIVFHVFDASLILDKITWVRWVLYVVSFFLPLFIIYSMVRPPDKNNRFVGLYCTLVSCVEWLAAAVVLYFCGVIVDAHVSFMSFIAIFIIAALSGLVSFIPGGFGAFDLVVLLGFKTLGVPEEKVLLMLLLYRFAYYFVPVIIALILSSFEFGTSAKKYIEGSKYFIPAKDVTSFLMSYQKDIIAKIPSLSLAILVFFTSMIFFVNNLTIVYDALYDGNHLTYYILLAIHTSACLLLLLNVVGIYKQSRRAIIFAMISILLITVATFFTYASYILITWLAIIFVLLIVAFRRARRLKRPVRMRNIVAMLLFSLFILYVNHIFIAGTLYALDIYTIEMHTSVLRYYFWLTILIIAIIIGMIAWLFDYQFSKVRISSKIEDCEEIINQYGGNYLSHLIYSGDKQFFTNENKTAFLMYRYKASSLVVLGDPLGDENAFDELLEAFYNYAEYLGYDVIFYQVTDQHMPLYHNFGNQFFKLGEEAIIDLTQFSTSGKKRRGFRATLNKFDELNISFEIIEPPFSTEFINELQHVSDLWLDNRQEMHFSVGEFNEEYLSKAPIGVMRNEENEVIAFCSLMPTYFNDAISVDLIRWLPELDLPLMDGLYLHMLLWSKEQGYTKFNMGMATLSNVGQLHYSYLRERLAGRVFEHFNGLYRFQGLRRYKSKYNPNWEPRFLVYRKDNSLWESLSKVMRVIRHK
- protocol_summary: whole cell ELISA on S. aureus; E. coli as negative control

binder: M-C4.5 (antibody, V domains shown, Selected from the MorphoSys Ylanthia library; framework VH6-1) VH: QVQLQQSGPGLVKPSQTLSLTCAISGDSVSSNSAAWNWIRQSPSRGLEWLGRTYYRSKWYNDYAVSVKSRITINPDTSKNQFSLQLNSVTPEDTAVYYCARSAEPSYAYYHGFDYWGQGTLVTVSS VL: DIQLTQSPSFLSASVGDRVTITCRASQGISSYLAWYQQKPGKAPKLLIYAASTLQSGVPSRFSGSGSGTEFTLTISSLQPEDFATYYCQQRIIFPQTFGQGTKVEIKR
binding result: binds
//
binder: M-C4.2 (antibody, V domains shown, Framework VH3-23 kappa 1) VH: EVQLLESGGGLVQPGGSLRLSCAASGFTFSSYAMHWVRQAPGKGLEWVSVISSVGSSTYYADSVKGRFTISRDNSKNTLYLQMNSLRAEDTAVYYCARGGLDVWGQGTLVTVSS VL: DIQMTQSPSSLSASVGDRVTITCRASQDISKYLNWYQQKPGKAPKLLIYAASRLQSGVPSRFSGSGSGTDFTLTISSLQPEDFATYYCQQGDSTPFTFGQGTKVEIKR
binding result: binds
//
binder: M-C6.2 (antibody, V domains shown, Framework VH1A kappa 1) VH: QVQLVQSGAEVKKPGSSVKVSCKASGGTFSSYAISWVRQAPGQGLEWMGGIIPILGIANYAQKFQGRVTITADESTSTAYMELSSLRSEDTAVYYCARSLPYRSDLYGFSRWSYHRVGMDVWGQGTLVTVSS VL: DIQMTQSPSSLSASVGDRVTITCRASQDISNTLNWYQQKPGKAPKLLIYAASTLQSGVPSRFSGSGSGTDFTLTISSLQPEDFATYYCQQVGSFPYTFGQGTKVEIKR
binding result: binds
